tested on: K562; experiment: Cytotoxicity against human K562 cells by MTT assay; format: functional, cell-based
Measured Quantity: IC50

Measured IC50 of `COc1cc(/C=C/CO)cc(OC)c1O[C@@H]1O[C@H](CO)[C@@H](O)[C@H](O)[C@H]1O` : > 5 µg/mL

The compound `C=CCc1ccc(O)c(-c2ccc(O)c(CC=C)c2)c1` showed IC50 equal to > 5 µg/mL

The reported IC50 of the compound `C=CCc1cc(-c2cc(/C=C/C=O)ccc2O)ccc1O` was > 5 µg/mL

The reported value for `COc1ccc(-c2cc(/C=C/C=O)ccc2O)cc1/C=C/C=O` in terms of IC50 is 3.7 µg/mL

The reported value for `C=CCc1cc(-c2cc(C=O)ccc2O)ccc1OC` in terms of IC50 is > 5 µg/mL

Kindly note the recorded IC50 for `C=CCc1cc(-c2cc(/C=C/C=O)ccc2O)ccc1OC` , which is > 5 µg/mL

So for `C=CCc1ccc(O)c(-c2cc(CC=C)ccc2O)c1` , the logged IC50 turned out to be > 5 µg/mL

Measured IC50, `C=CCc1ccc(O)c(-c2ccc(OC)c(CC=C)c2)c1` : > 5 µg/mL

The compound listed as `COc1cccc2c1C(=O)c1c(O)c3c(c(O)c1C2=O)C[C@@](O)(C(=O)CO)C[C@@H]3O[C@H]1C[C@H](N)[C@H](O)[C@H](C)O1` has a reported IC50 of 1.41 µg/mL

According to the records, this compound COc1cc(/C=C/C=O)cc(OC)c1O[C@@H]1O[C@H](CO)[C@@H](O)[C@H](O)[C@H]1O [SINAPALDEHYDE GLUCOSIDE] displays IC50 of > 5 µg/mL

The compound listed as C=CCc1cc(-c2cc(CC(O)CO)ccc2O)ccc1O (configuration not stated) shows IC50 equal to > 5 µg/mL

Item: `C=CCc1cc(-c2cc(C=O)ccc2O)ccc1O` | IC50: > 5 µg/mL

----------
test system: HeLa; assay: Cytotoxicity against human HeLa cells by MTT assay; type: functional, cell-based
Consider the following compounds; for each one, report its IC50.

// recorded IC50 for COc1cc(/C=C/CO)cc(OC)c1O[C@@H]1O[C@H](CO)[C@@H](O)[C@H](O)[C@H]1O [SYRINGIN] : > 5 µg/mL

// C=CCc1ccc(O)c(-c2ccc(O)c(CC=C)c2)c1 [HONOKIOL] : IC50 value = > 5 µg/mL

Consider C=CCc1cc(-c2cc(C=O)ccc2O)ccc1O [MAGNALEDEHYDE E] . Its measured IC50 is > 5 µg/mL

The compound listed as `COc1ccc(-c2cc(/C=C/C=O)ccc2O)cc1/C=C/C=O` has a reported IC50 of 3.9 µg/mL

Quick note, IC50 for COc1cc(/C=C/C=O)cc(OC)c1O[C@@H]1O[C@H](CO)[C@@H](O)[C@H](O)[C@H]1O [SINAPALDEHYDE GLUCOSIDE] landed at > 5 µg/mL

Entry COc1cccc2c1C(=O)c1c(O)c3c(c(O)c1C2=O)C[C@@](O)(C(=O)CO)C[C@@H]3O[C@H]1C[C@H](N)[C@H](O)[C@H](C)O1 [DOXORUBICIN] — recorded IC50 = 0.8 µg/mL

The value of IC50 measured for the compound C=CCc1ccc(O)c(-c2ccc(OC)c(CC=C)c2)c1 [METHYLHONOKIOL] turned out to be > 5 µg/mL

Entry under test: C=CCc1ccc(O)c(-c2cc(CC=C)ccc2O)c1 [MAGNOLOL] . Its IC50 was > 5 µg/mL

Data origin, for the record: ChEMBL document CHEMBL1141318
